Values were extracted from ChEMBL document CHEMBL1201862.

System tested: UniProt:P05186
Sequence (P05186 whole entry): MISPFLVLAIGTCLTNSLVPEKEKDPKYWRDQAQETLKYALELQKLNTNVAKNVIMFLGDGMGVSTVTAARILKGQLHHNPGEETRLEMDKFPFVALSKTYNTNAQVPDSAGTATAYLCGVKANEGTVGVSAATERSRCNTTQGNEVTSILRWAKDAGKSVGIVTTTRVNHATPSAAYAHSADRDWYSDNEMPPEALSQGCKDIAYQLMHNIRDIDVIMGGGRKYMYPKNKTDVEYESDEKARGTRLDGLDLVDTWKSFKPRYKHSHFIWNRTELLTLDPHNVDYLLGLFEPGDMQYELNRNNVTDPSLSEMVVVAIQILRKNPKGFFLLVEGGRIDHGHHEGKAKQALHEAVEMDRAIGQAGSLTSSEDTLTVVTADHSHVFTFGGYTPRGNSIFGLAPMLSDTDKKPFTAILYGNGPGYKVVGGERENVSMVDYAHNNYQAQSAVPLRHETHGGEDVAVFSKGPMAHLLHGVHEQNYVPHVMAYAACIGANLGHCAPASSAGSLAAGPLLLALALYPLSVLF
Experiment notes: potency against alkaline phosphatase TNAP – biochemical, luminescent, dose response, SAR follow-up (AID 1056)
Calls of active or inactive are those of the source.
Outcomes: active, inactive

O=S(=O)(Nc1ccncn1)c1ccccc1 :: inactive
COC(=O)c1cc(-c2ccc(OC)cc2)[nH]n1 :: active
O=C(CSc1nnc[nH]1)NCCOc1ccccc1 :: active
CC(OC(=O)c1cc(-c2ccc(Br)cc2)[nH]n1)C(=O)NC(C)(C)C (centres undefined) :: active

----------
System tested: Heat shock factor protein 1 (Mus musculus)
Sequence (P38532 whole entry): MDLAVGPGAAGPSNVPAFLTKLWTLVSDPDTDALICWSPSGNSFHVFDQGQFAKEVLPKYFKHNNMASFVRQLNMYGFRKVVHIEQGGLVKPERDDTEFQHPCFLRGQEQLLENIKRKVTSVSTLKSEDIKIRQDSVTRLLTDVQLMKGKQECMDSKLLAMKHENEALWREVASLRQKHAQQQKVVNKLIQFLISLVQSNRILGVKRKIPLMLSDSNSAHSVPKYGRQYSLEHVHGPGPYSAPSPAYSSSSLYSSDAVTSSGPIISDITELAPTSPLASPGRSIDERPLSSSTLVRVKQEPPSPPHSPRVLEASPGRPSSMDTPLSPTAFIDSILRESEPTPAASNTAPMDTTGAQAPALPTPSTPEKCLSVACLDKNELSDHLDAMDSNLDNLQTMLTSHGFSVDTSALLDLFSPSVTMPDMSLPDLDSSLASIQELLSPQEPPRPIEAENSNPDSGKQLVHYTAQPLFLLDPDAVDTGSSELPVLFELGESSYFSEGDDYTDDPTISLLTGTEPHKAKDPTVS
Experiment notes: enhancement of HSF1-driven luciferase signal – cell-based, NIH3T3, luminescence, dose retest, confirmation (AID 435004);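 note: stress induced by proteasome inhibitor MG132 added 30 min after compound; luciferase reporter driven by HSF1 response element in NIH3T3 cells; actives raise luminescence as potentiators of the MG132 stress response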
Type: functional
Activity calls are given as the source filed them.
Outcomes: T = active, F = inactive

Cc1ccc(/C=C2\Oc3cc(OC(=O)N4CCOCC4)ccc3C2=O)cc1 :: F
CCN(CC)CCCN1C(=O)c2oc3ccccc3c(=O)c2C1c1cccc(OC)c1OC (centres undefined) :: F
Cc1[nH]n(-c2ccccc2)c(=O)c1/C=N/CCc1ccccc1 :: T
CN(NC1OC(=O)c2ccccc21)c1ncc(Cl)cc1C(F)(F)F (centres undefined) :: F
CCCn1c(C)nc2c(c1=O)c1nc3ccccc3nc1n2CCC1=CCCCC1 :: F
Cc1cc(O)nc(SCc2nc3ccccc3c(=O)n2-c2ccccc2C)n1 :: F
O=C(N/N=C/c1ccc(-c2cccc([N+](=O)[O-])c2)o1)c1ccccc1O :: F
OC(CNCc1ccc(F)cc1)(c1ccc(F)cc1)c1ccc(F)cc1 :: F
COc1cccc(OC)c1OCCNCC1COc2ccccc2O1 (centres undefined) :: F
COC(=O)CNC(c1ccccc1)c1cc(Br)ccc1N (centres undefined) :: F
COc1ccc(C(=O)/C=C2/C(=O)Nc3ccccc32)cc1OC :: F
Oc1nc(Nc2ccccc2Cl)cc2ccccc12 :: T
O=C(N/N=C/CCc1ccccc1)c1ccccc1 :: F
CCOC(=O)C1CCCN(CC(=O)Nc2c(C(=O)OC)[nH]c3ccccc23)C1 (centres undefined) :: F
Cc1ncc([N+](=O)[O-])n1CCOC(=O)c1cc(Cl)cc(Cl)c1N :: F
CCOC(=O)c1c(CN2CCC(C)CC2)n(C)c2cc(Br)c(OC)cc12 :: F
Cc1onc(-c2ccccc2)c1C(=O)OCc1nnc(-c2ccccc2)o1 :: F

----------
System tested: UniProt Q01970
Sequence (Q01970 whole entry): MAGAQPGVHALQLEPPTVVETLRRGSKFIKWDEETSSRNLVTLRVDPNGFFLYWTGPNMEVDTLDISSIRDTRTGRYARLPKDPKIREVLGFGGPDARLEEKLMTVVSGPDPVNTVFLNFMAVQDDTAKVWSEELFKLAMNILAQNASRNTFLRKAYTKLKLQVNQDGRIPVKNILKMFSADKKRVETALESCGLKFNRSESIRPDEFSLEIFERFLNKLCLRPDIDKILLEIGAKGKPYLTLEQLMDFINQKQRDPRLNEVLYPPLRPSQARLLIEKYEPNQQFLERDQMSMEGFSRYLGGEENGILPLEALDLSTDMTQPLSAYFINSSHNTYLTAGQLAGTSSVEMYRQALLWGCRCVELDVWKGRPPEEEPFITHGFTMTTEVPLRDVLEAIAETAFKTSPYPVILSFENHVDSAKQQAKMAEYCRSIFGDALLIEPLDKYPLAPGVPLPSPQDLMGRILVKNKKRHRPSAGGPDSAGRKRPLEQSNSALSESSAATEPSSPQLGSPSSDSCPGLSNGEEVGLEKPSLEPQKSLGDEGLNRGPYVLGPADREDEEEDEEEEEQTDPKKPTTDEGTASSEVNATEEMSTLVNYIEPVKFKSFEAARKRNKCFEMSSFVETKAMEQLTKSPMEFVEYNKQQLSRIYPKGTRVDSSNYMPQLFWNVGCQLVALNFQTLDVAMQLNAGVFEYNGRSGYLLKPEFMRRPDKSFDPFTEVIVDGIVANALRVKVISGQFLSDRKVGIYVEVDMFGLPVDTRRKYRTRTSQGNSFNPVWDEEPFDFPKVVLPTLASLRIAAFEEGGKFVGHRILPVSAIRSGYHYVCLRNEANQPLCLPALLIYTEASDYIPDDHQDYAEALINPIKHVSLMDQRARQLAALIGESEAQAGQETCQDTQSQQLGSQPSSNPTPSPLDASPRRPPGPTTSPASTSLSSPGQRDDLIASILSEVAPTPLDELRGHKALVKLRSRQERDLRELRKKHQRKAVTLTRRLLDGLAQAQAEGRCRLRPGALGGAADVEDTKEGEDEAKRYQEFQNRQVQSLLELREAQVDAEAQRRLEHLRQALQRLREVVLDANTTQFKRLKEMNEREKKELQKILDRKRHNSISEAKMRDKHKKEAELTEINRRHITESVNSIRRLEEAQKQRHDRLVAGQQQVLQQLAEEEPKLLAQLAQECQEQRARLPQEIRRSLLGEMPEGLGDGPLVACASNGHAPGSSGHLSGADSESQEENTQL
Experiment notes: Fluorescence-based biochemical high throughput dose response assay to identify inhibitors of phospholipase C isozymes (PLC-B3).
Calls of active or inactive are those of the source.
Measurement type: IC50

O=C(CCN1C(=O)/C(=C\c2ccco2)SC1=S)Nc1ccc(C(=O)O)c(O)c1 :: > 122 µM (inactive)
O=C1NC(=S)S/C1=C\c1ccc(SCc2ccccc2)o1 :: > 122 µM (inactive)
O=C(COC(=O)c1ccccc1C(=O)OCC(=O)NCCc1c[nH]c2ccccc12)NCCc1c[nH]c2ccccc12 :: > 123 µM (inactive)
C/N=C1/SC(CC(=O)NCCc2ccc(OC)c(OC)c2)C(=O)N1C (centres undefined) :: > 122 µM (inactive)

----------
System tested: Long-chain-fatty-acid--AMP ligase FadD28 (Mycobacterium tuberculosis, UniProt P9WQ59)
Sequence (P9WQ59 whole entry): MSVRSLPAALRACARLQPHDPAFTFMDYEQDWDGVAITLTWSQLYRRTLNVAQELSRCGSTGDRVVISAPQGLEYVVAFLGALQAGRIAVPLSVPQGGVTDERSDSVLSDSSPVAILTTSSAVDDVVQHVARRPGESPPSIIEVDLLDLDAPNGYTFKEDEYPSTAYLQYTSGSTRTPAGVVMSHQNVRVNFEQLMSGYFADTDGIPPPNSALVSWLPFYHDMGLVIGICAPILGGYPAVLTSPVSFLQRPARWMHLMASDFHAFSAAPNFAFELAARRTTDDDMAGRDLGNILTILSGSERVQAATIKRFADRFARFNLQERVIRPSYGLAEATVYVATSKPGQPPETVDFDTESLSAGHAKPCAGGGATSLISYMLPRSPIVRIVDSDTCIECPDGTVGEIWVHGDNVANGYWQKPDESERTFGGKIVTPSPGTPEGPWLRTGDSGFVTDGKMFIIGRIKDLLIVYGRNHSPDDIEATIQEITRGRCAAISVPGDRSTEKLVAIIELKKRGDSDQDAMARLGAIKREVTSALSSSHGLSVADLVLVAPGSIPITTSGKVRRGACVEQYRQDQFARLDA
Experiment notes: Fluorescence polarization aasay to screen for inhibitors that compete for the binding of FadD28 to a bisubstrate Measured in Biochemical System Using Plate Reader - 2147-01_Inhibitor_Dose_CherryPick_Activity.
Format: functional, Mycobacterium tuberculosis H37Rv
Activity calls are given as the source filed them.
Outcomes: True for active, False for inactive

C/C(=N\Nc1ccc(Cl)c(C(=O)O)c1)c1ccc(Br)s1 :: False
O=C(CC(=O)Nc1ccccc1[N+](=O)[O-])Nc1ccccc1[N+](=O)[O-] :: False
CCN(CC)c1ccc(/C=N/NC(=O)c2ccc3[nH]cnc3c2)c(O)c1 :: True
Cc1cccc(C)c1Cn1c(C)c(C(=O)NCc2ccc([N+](=O)[O-])cc2)sc1=O :: True
Oc1ccc(/C=N/n2c(S)nnc2C2CCCCC2)c(O)c1 :: True
